assay.protocol: Half life in dog at 1 mg/kg, iv
Format: ADME, organism-based, Canis lupus familiaris
condition: in vivo
measure.name: half-life (h)
Give bare numbers, in h.

// query What measured half-life goes with C[C@H]1C[C@H](C(=O)O)CC[C@H]1C(=O)N1CC[C@@]2(S(=O)(=O)c3ccccc3)c3cc(F)c(C(F)(C(F)(F)F)C(F)(F)F)cc3CC[C@@H]12 ?
// result 28

====

assay.protocol: Cmax in BALB/c mouse at 4 mg/kg, po
Format: ADME, organism-based
Set-up: route oral, dose 4 mg/kg
condition: in vivo
measure.name: Cmax (µM)
Answers are plain numbers, in µM.

// query What measured Cmax goes with C[C@H]1C[C@H](C(=O)O)CC[C@H]1C(=O)N1CC[C@@]2(S(=O)(=O)c3ccccc3)c3cc(F)c(C(F)(C(F)(F)F)C(F)(F)F)cc3CC[C@@H]12 ?
// result 4.6

Recorded values, source ChEMBL document CHEMBL4699477.
